molecular target: D(2) dopamine receptor (Homo sapiens) (UniProt P14416); test: Dopamine D2 receptor (DRD2) small molecule antagonists, cell-based qHTS assay (AID 1963595); settings: HEK293-DRD2 cAMP HTRF antagonist mode; series mostly up to 92.4 µM; note: % is set by controls: 0 for no effect and ±100 for the full control effect
Sequence (P14416 whole entry, looked up): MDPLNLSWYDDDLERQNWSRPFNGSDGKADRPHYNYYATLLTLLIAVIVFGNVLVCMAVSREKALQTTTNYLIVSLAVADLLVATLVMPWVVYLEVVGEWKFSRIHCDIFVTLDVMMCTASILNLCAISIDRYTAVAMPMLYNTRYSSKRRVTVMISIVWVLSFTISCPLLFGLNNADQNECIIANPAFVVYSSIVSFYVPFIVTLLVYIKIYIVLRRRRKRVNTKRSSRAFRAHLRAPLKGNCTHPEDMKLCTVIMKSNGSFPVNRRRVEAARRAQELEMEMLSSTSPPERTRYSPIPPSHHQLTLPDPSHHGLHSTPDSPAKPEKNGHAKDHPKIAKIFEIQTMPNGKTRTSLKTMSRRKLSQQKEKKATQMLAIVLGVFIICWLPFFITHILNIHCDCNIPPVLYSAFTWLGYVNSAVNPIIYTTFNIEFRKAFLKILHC
Records with an inconclusive call do not appear. The source made the active and inactive calls. Calls come from the whole dose curve; as a rule, active = well fitted inhibition curve with a large enough effect in the signal ratio in the repeat runs, with a control signal flat; inconclusive = weak or mixed curves, or effect the other way; inactive = flat fitted curve, though single readings scatter; the % refers to the signal ratio.
// allowed return values: active, inactive

> print(dat)
                                   compound     class
1                             CN(C)C1CCCCC1  inactive
2  CCCCN(CCCC)C(=S)[S-].CCCCN(CCCC)C(=S)[S-].[Ni+2]  inactive
3  COC(=O)c1ccccc1S(=O)(=O)NC(=O)Nc1nc(C)cc(C)n1  inactive
4  Oc1ccc2[nH]cc(CCCCN3CC=C(c4ccccc4)CC3)c2c1  inactive
5  O=C(N/N=C/c1ccc([N+](=O)[O-])o1)c1cc([N+](=O)[O-])cc([N+](=O)[O-])c1O  inactive

Please turn your attention to the following entry.
Dear all, I need the recorded test outcome for "CC(C)(Cl)[N+](=O)[O-]" , thank you.
inactive

---

experiment: p53 small molecule agonists, cell-based qHTS assay with rat liver microsomes: qHTS cell viability counter screen (AID 1963580); details: p53RE-bla HCT-116 + rat microsomes, ATP viability, 16 h; series mostly up to 66 µM; note: nearly all actives have a fitted effect of over 45% in size
Inconclusive results are not listed. The source made the active and inactive calls. Calls come from the whole dose curve.
// allowed return values: y for active, n for inactive

Example entries and their recorded answers appear below.
> print(dat)
                                   compound  class
1             CC(O)CCl (stereo unspecified)      n
2                         N#Cc1c(Cl)cccc1Cl      n
3                            CCOP(=S)(S)OCC      n
4  CCC[CH2][Sn]([CH2]CCC)([CH2]CCC)[O]C(=O)c1ccccc1      y
5   O=c1oc2ccccc2c(O)c1Cc1c(O)c2ccccc2oc1=O      n

Dear all, I need the recorded test outcome for "Clc1cccc2ccccc12" , thank you.
n

Dear all, I need the recorded test outcome for "CSc1nc(N=[N+]=[N-])nc(NC(C)C)n1" , thank you.
n

Dear all, I need the recorded test outcome for "C=CCC1([C@H](C)CCC)C(=O)NC(=O)NC1=O" , thank you.
n

Dear all, I need the recorded test outcome for "CC(C)(c1ccc(O)c(-c2ccccc2)c1)c1ccc(O)c(-c2ccccc2)c1" , thank you.
y

Dear all, I need the recorded test outcome for "N[C@@H]1C[C@H]1c1ccccc1" , thank you.
n

Dear all, I need the recorded test outcome for CCOP(=S)(OCC)Oc1ccc(S(C)=O)cc1 (stereo unspecified) , thank you.
n

Dear all, I need the recorded test outcome for CCC(C(N)=O)N1CCCC1=O (stereo unspecified) , thank you.
n

Dear all, I need the recorded test outcome for "COP(=O)(OC)O/C(C)=C/C(=O)N(C)C" , thank you.
n

---

test: cAMP Responsive Elements (CRE) small molecule antagonists, cell-based qHTS assay (AID 1963591); details: CRE-bla HEK293T, beta-lactamase FRET ratio; series mostly up to 92.4 µM; note: % is set by controls: 0 for no effect and ±100 for the full control effect
Results filed as inconclusive are left out. Calls of active or inactive are those of the source. The call rests on the fitted dose curve; in most records, active means well fitted inhibition curve with a large enough effect in the signal ratio in the repeat runs (not every such curve was filed as active); inconclusive means weak or mixed curves, or effect the other way; inactive means flat fitted curve, though single readings scatter; the % refers to the signal ratio.
// allowed return values: active, inactive

Example entries and their recorded answers appear below.
> print(dat)
                                   compound     class
1  CCC(C)Nc1c([N+](=O)[O-])cc(C(C)(C)C)cc1[N+](=O)[O-] (configuration not stated)  inactive
2  C#CC(O)(C=CCl)CC (configuration not stated)  inactive
3  COP(=S)(NC(C)C)Oc1ccc(C)cc1[N+](=O)[O-] (configuration not stated)  inactive

Please turn your attention to the following entry.
Dear all, I need the recorded test outcome for "CN(C)C1CCCCC1" , thank you.
inactive

---

experiment: cAMP Responsive Elements (CRE) small molecule agonists, cell-based qHTS assay (AID 1963590); settings: CRE-bla HEK293T, beta-lactamase FRET ratio, 3 h; series mostly up to 92.4 µM; note: % is set by controls: 0 for no effect and ±100 for the full control effect
Inconclusive results are not listed. Activity calls are given as the source filed them. Calls follow the shape of the full dose curve.
recorded_metric: activation

Reference set, count: 5
> print(dat)
                                   compound  reported.result
1  CC(C)CC(N(C)C)C1(c2ccc(Cl)cc2)CCC1 (configuration not stated)         inactive
2                     Clc1ccc(Oc2ccccc2)cc1         inactive
3                 Cc1nnc(-c2ccccc2)c(=O)n1N         inactive
4  c1ccc2c(c1)OCC(C1=NCCN1)O2 (configuration not stated)         inactive
5  CCN(CCO)CCn1c(Cc2ccccc2)nc2c1c(=O)n(C)c(=O)n2C         inactive

Given "O=C(CBr)OCc1ccccc1" , state its recorded activation.
inactive

Given "O=C=Nc1ccc(Cl)cc1" , state its recorded activation.
inactive

Given "C=CCc1ccc(OC(=O)Cc2ccccc2)c(OC)c1" , state its recorded activation.
inactive

Given "CNC(=O)/C=C(\C)OP(=O)(OC)OC" , state its recorded activation.
inactive

Given "CC(C)N(Cc1ccccc1)C(=O)C(C)(C)C" , state its recorded activation.
inactive

Given "S=C(SSC(=S)N1CCCCC1)N1CCCCC1" , state its recorded activation.
inactive

Given "O=c1[nH]oc2c1CCNC2" , state its recorded activation.
inactive

Given "Cc1c(COC(=O)[C@@H]2[C@H](/C=C(\Cl)C(F)(F)F)C2(C)C)cccc1-c1ccccc1" , state its recorded activation.
inactive

Given "C[C@@H](N)[C@@H](O)c1ccccc1" , state its recorded activation.
inactive

Given "CCSC(=O)Cl" , state its recorded activation.
inactive

Given "CCN[C@H](C)Cc1cccc(C(F)(F)F)c1" , state its recorded activation.
inactive

Given "CSc1ccc(C(=O)C(C)(C)N2CCOCC2)cc1" , state its recorded activation.
inactive

Given "CC(C)(C)OO" , state its recorded activation.
inactive

Given CCOP(=S)(Oc1ccc([N+](=O)[O-])cc1)c1ccccc1 (configuration not stated) , state its recorded activation.
inactive

Given "ClC(Cl)C(Cl)Cl" , state its recorded activation.
inactive

Given "CCC(C)(c1ccc(O)cc1)c1ccc(O)cc1" , state its recorded activation.
inactive

---

experiment: G protein-coupled receptor (GPCR) small molecule agonists, calcium flux assay: HEK293 wild type cell line counter screen (AID 1920065); conditions: HEK293 WT calcium flux, fluorescence, agonist mode; series mostly up to 57.6 µM; note: % is set by controls: 0 for no effect and ±100 for the full control effect
Calls of active or inactive are those of the source. Calls follow the shape of the full dose curve.
recorded_metric: activation

> print(dat)
                                   molecule  recorded.metric  reported.result
1              CON(C)C(=O)Nc1ccc(Br)c(Cl)c1       activation         inactive
2  CCC1(c2cccc(O)c2)CCCCN(C)C1 (stereo not drawn)       activation         inactive
3  CC(C)(C)C(O)C(Oc1ccc(-c2ccccc2)cc1)n1cncn1 (stereo not drawn)       activation         inactive
4                            CCOP(=S)(S)OCC       activation         inactive
5                   O=C(Nc1ccccc1)c1ccccc1I       activation         inactive

Given "CCOP(=S)(OCC)Oc1cc(-c2ccccc2)on1" , state its recorded activation.
inactive

Given CCNP(=S)(OC)O/C(C)=C/C(=O)OC(C)C (stereo not drawn) , state its recorded activation.
inactive

Given "Nc1ccc([N+](=O)[O-])cc1" , state its recorded activation.
inactive

Given ClC1=C(Cl)C2(Cl)C(CBr)CC1(Cl)C2(Cl)Cl (stereo not drawn) , state its recorded activation.
inactive

Given "Clc1cc(Cl)c(-c2cc(Cl)c(Cl)cc2Cl)cc1Cl" , state its recorded activation.
inactive

Given "CC1(C)[C@H](/C=C2\CCSC2=O)[C@@H]1C(=O)OCc1coc(Cc2ccccc2)c1" , state its recorded activation.
inactive

Given C[N+](C)(C)CC1CO1 (stereo not drawn) , state its recorded activation.
inactive

Given "Cc1ccc2nc3sc(=O)sc3nc2c1" , state its recorded activation.
-0.174% [at 11.8 µM] (inactive)

---

assay: p53 small molecule agonists, cell-based qHTS assay with human liver microsomes: qHTS cell viability counter screen (AID 1963579); conditions: p53RE-bla HCT-116 viability, ATP luminescence, 16 h, HLM; series mostly up to 66 µM; note: nearly all actives have a fitted effect of over 45% in size
Records with an inconclusive call do not appear. Activity calls are given as the source filed them. Calls come from the whole dose curve.
// allowed return values: yes (1) for active, no (0) for inactive

Example entries and their recorded answers appear below.
> print(dat)
                                   compound    class
1                                SCc1ccccc1   no (0)
2  Oc1ccc(C2(c3ccc(O)cc3)c3ccccc3-c3ccccc32)cc1  yes (1)
3                CC(=O)/C=C/c1ccc2c(c1)OCO2   no (0)
4  CCO[C@H]1O[C@@H]2OC3(C)CC[C@H]4[C@H](C)CC[C@@H]([C@H]1C)[C@@]24OO3   no (0)
5              CC(=O)[O-].CC(=O)[O-].[Co+2]   no (0)

Dear all, I need the recorded test outcome for "O=C(O)c1ccc2[nH]cc(CCCCN3CC=C(c4ccccc4)CC3)c2c1" , thank you.
no (0)

Dear all, I need the recorded test outcome for CC[N+]1(C)CCCC(OC(=O)C(O)(c2ccccc2)c2ccccc2)C1 (stereo unspecified) , thank you.
no (0)

Dear all, I need the recorded test outcome for Cc1c(F)c(F)c(COC(=O)C2C(/C=C(\Cl)C(F)(F)F)C2(C)C)c(F)c1F (stereo unspecified) , thank you.
no (0)

Dear all, I need the recorded test outcome for "CCC1(CC)C(=O)N=C(O)NC1=O" , thank you.
no (0)

Dear all, I need the recorded test outcome for "COc1cc(Cl)c(OC)cc1Cl" , thank you.
no (0)

Dear all, I need the recorded test outcome for "CN1COCN(Cc2cnc(Cl)s2)/C1=N\[N+](=O)[O-]" , thank you.
no (0)

Dear all, I need the recorded test outcome for "C[C@]12CC[C@H]3[C@@H](CCC4=CC(=O)CC[C@@H]43)[C@@H]1CC[C@@H]2OC(=O)CCc1ccccc1" , thank you.
no (0)

Dear all, I need the recorded test outcome for "CCc1ccc(C(=O)NN(C(=O)c2cc(C)cc(C)c2)C(C)(C)C)cc1" , thank you.
no (0)

Dear all, I need the recorded test outcome for CCCCC(CC)COP(=O)(Oc1ccccc1)Oc1ccccc1 (stereo unspecified) , thank you.
no (0)

Dear all, I need the recorded test outcome for "COc1cc(C[C@@H](C)N)c(OC)cc1Br" , thank you.
no (0)

Dear all, I need the recorded test outcome for "Cc1cc(C(F)(C(F)(F)F)C(F)(F)F)ccc1NC(=O)c1cccc(I)c1C(=O)NC(C)(C)CS(C)(=O)=O" , thank you.
no (0)

Dear all, I need the recorded test outcome for "COP(=S)(OC)Oc1nc(Cl)c(Cl)cc1Cl" , thank you.
no (0)

Dear all, I need the recorded test outcome for CCC1COC(Cn2cncn2)(c2ccc(Cl)cc2Cl)O1 (stereo unspecified) , thank you.
no (0)

Dear all, I need the recorded test outcome for "OCCBr" , thank you.
no (0)

Dear all, I need the recorded test outcome for "CN1C(=O)[C@@H](NC(=O)c2cc3ccccc3[nH]2)N=C(c2ccccc2)c2ccccc21" , thank you.
no (0)

Dear all, I need the recorded test outcome for "c1ccc2nc(N3CCNCC3)ccc2c1" , thank you.
no (0)

Dear all, I need the recorded test outcome for "CNC(=O)CSP(=O)(OC)OC" , thank you.
no (0)
